# Test system: HT-29
# assay name: Growth inhibition of human HT-29 cells assessed as growth percentage at 10 uM incubated for 48 hrs by sulforhodamine B assay relative to control
# Type: functional
# measurement setup: HT-29, 48 h, read-out: Activity
quantity measured: growth at 10 µM (%)
Note: unit % is implicit; provide only the numeric part.

Incoming: Which growth at 10 µM value belongs to COCCOC(=O)C1=C(C)NC(=O)NC1c1ccc2c(c1)OCO2 (racemic) ?
Outgoing: 102

Incoming: Returns the measured growth at 10 µM for the input molecule. Input: CC1=C(C(=O)OCC(C)C)C(c2ccc3c(c2)OCO3)NC(=O)N1 (racemic)
Outgoing: 105

Incoming: Look at this molecule and give its reported growth at 10 µM. COCCOC(=O)C1=C(C)NC(=S)NC1c1ccc2c(c1)OCO2 (racemic)
Outgoing: 96.7

Incoming: Need growth at 10 µM, item CC(=O)N1C(=S)NC(C)=C(C(=O)OCC(C)C)C1c1ccc2c(c1)OCO2 (racemic)
Outgoing: 104

Incoming: Give its growth at 10 µM value. Item: CC1=C(C(=O)OC(C)C)C(c2ccc3c(c2)OCO3)NC(=O)N1 (racemic)
Outgoing: 103

Incoming: Which growth at 10 µM value belongs to CC(=O)N1C(=S)NC(C)=C(C(=O)OC(C)C)C1c1ccc2c(c1)OCO2 (racemic) ?
Outgoing: 105
